Biological target: T1, extracellular domain of human CD73 protein, C-terminus polyhistidine-tagged (human, UniProt P21589 27-547)
T1 construct: also the immunogen; also called CD73-ECD; human CD73-ECD
T1 sequence: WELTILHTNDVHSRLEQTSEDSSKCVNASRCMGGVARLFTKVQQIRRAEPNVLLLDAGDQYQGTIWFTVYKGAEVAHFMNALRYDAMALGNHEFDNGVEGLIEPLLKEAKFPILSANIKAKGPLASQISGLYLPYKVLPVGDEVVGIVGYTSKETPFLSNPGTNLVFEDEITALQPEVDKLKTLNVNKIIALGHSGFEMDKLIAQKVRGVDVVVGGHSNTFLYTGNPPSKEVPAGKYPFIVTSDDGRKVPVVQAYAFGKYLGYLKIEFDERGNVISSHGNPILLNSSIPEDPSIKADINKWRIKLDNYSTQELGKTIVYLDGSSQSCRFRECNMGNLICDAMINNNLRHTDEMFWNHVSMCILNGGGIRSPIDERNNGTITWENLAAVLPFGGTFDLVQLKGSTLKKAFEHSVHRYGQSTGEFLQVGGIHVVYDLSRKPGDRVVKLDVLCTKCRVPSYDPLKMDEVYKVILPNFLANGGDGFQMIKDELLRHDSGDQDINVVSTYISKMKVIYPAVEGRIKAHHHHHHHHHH
Test: ELISA on coated human CD73-ECD, HRP-protein A detection; fitted upper plateau of the OD450 curve
Parameters: unit not given here
quantity.kind: Top (%)

{"binder": "chimeric nanobody 4-D04 (Fc fusion, Human-alpaca chimeric antibody) VHH: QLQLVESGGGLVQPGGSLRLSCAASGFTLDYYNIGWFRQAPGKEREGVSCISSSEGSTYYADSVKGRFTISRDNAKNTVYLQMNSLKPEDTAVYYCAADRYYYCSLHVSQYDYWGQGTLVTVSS", "measured.value": 2.08}
{"binder": "chimeric nanobody 5-E11 (Fc fusion, Human-alpaca chimeric antibody (VHH on hIgG1 Fc); Only the VHH is tied to the tested molecule; also called original antibody 5-E11) VHH: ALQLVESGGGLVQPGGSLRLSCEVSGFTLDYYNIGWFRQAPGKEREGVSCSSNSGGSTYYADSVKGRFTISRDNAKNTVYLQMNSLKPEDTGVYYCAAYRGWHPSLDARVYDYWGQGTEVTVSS", "measured.value": 2.28}
{"binder": "chimeric nanobody 4-B02 (Fc fusion, Human-alpaca chimeric antibody) VHH: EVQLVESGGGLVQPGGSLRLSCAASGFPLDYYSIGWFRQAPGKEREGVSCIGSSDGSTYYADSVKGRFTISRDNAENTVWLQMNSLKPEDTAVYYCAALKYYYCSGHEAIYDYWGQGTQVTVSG", "measured.value": 2}
{"binder": "chimeric nanobody 3-D7 (Fc fusion, Human-alpaca chimeric antibody (VHH on hIgG1 Fc); Only the VHH is tied to the tested molecule; 37-39 exist for 3-D7-FC1/FC2/FC3; also called original antibody 3-D7) VHH: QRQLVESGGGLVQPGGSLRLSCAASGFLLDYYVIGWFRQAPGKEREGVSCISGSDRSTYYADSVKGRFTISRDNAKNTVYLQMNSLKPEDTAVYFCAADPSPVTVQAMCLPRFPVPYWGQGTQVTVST", "measured.value": 1.79}
